ASSAY READOUT: melting point

1) CC(C)(C)Nc1nc(Cl)cc(N2CCCC2)n1 : 153 to 157 °C
2) O=c1ccc(-c2ccc(CCCO)cc2)cn1Cc1ccc(Cl)cc1 : 165 °C
3) CC(C)n1nc(C(Cl)C(=O)c2ccccc2)ccc1=O (stereo not given) : 86.5 to 87.5 °C
4) CCOC(=O)CCc1cccc2c1NC(=O)CC2 : 102 to 103 °C
5) O=C(O)COc1cccc2c1CCC(n1nc(-c3c(-c4ccccc4)nn4ccccc34)ccc1=O)C2=O (stereo not given) : 225 to 227 °C
6) CCCc1c(OCc2cc(Br)c(C(=O)O)cc2OC)ccc(C(C)=O)c1O : 237 to 238 °C
7) Cc1c(C(=O)N[C@H](C)[C@](O)(Cn2cncn2)c2ccc(F)cc2F)cnn1-c1c(Cl)cccc1Cl : 226 to 227 °C
8) CN1C(=O)C(=O)N(CCCCCBr)C1=S : 48 to 50 °C
9) CC[C@@H](C)[C@H](CC(C(=O)O)C(=O)O)C(=O)OC : 98 °C
10) CCC(CC)OC(=O)c1ccc(C(=O)NS(=O)(=O)c2ccc(CCNC(=O)c3cc(OC)ccc3Cl)cc2)cn1 : 174 to 176 °C
